From: the supplement of paper PMC10065799

Molecular target: MERTK (UniProt Q12866)
Sequence (Q12866 whole entry, looked up): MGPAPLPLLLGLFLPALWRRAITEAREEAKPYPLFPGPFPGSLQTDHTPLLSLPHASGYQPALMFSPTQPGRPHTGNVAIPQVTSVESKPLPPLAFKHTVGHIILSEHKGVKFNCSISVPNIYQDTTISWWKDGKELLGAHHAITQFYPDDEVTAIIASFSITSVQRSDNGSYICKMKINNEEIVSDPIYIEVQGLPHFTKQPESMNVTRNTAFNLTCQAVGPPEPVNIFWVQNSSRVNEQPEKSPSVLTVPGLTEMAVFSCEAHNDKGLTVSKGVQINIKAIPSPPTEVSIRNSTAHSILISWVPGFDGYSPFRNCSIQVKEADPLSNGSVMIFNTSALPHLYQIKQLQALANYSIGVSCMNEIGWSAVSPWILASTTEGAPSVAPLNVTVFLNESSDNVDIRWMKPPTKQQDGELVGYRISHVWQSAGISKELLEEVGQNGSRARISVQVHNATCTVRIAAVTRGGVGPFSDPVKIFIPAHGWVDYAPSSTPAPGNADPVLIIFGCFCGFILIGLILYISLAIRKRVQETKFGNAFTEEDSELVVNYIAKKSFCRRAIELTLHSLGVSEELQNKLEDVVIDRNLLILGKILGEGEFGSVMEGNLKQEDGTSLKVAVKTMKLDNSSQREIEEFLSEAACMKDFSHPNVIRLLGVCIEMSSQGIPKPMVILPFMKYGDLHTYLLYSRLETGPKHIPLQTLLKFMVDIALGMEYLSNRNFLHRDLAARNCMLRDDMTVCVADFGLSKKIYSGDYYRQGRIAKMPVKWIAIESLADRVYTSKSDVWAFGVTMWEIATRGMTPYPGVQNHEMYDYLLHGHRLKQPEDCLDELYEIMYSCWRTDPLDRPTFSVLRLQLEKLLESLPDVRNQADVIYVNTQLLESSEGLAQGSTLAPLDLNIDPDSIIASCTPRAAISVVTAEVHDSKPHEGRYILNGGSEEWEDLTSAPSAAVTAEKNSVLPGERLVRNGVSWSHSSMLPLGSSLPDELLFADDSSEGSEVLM
Test: phosphorylation enrichment, bacterial display (enrichment ratio); higher = better substrate or ligand; peptides without Tyr show the background;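 note: 11-residue human phosphosite peptides and single-mutation variants displayed on the E. coli surface, counted by deep sequencing, each peptide's frequency after selection divided by its frequency in the unselected input library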;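 note: frequency after pTyr selection over input frequency; kinase dosed for 20-30% of maximal phosphorylation in three min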
readout: phosphorylation enrichment
Write the number on its own, no unit after it.

Sample answers from the record:
# input sequence, target or test system, phosphorylation enrichment
measured = [
    ("SAAAIYMVRHP [PMP22_Y117_T118M]", "MERTK (UniProt Q12866)", 3.25),
    ("MEIHAYHKLLE [LMNA_Y376_R377H]", "MERTK (UniProt Q12866)", 0.403),
    ("EQKRYYNAMKK [SCN5A_Y1495_K1493R]", "MERTK (UniProt Q12866)", 0.547),
    ("ASFPLYEPAKM [MKI67_Y340]", "MERTK (UniProt Q12866)", 3.18),
    ("LDFNEYFRGLN [HPRT1_Y198_D201G_YF]", "MERTK (UniProt Q12866)", 0.714),
]

Input LGNFNYEQRGA [API5_Y497] . Output phosphorylation enrichment: 0.392

Input FSVDGYDSSVR [KCNQ1_Y461] . Output phosphorylation enrichment: 0.311

Input QVKEQYQDVPM [PKP2_Y659_K654Q] . Output phosphorylation enrichment: 0.565

Input KREPQYSSHSS [SIPA1L3_Y1265_G1261R] . Output phosphorylation enrichment: 0.452

Input QISSNYDDAMQ [ZNF281_Y531] . Output phosphorylation enrichment: 0.845

Input SEDSEYFKAFE [CASQ2_Y178_YF] . Output phosphorylation enrichment: 0.557

----------
Molecular target: MERTK (UniProt Q12866)
Assay: phosphorylation enrichment, bacterial display (enrichment ratio); higher = better substrate or ligand; peptides without Tyr show the background
The threshold is inclusive: phosphorylation enrichment of exactly 0.5 counts as class 1; values below receive class 0.

Some solved entries appear below for comparison.
# input sequence, assigned class
data = [
    ("PESILYRKFTT [NTRK1_Y701]", "class 1"),
    ("IRTIDYRFTVS [IDS_Y497_W502S_YF]", "class 0"),
    ("PSPMPYACCQM [FOXL2_Y215_S217C]", "class 1"),
]

We next turn to a different sequence, shown below.
Q: Test whether the sequence RSSGGYEPRGC [FUS_Y239_R244C] records phosphorylation enrichment of 0.5 or higher.
A: class 0

----------
Test system: c-Abl (mouse)
Assay: phosphorylation enrichment, bacterial display (enrichment ratio); higher = better substrate or ligand; peptides without Tyr show the background
The threshold is inclusive: phosphorylation enrichment of exactly 0.7 counts as T; values below receive F.

Some solved entries appear below for comparison.
# input sequence, assigned class
records = [
    ("RLLVVYPWTKR [HBB_Y36_Q40K]", "F"),
    ("FKDFFYCWNTF [AICDA_Y146_YF]", "T"),
    ("KSFDMYSGDVM [FAM3D_Y122_A118S]", "F"),
    ("ETELPYQELQG [TYROBP_Y91_S89L]", "T"),
    ("ERSMSYSDESR [SMG1_Y143]", "T"),
]

Q: Test whether the sequence RTLIRYANLSN [BEST1_Y131_G135S] records phosphorylation enrichment of 0.7 or higher.
A: F

Q: Test whether the sequence QCQLKYSETPF [SIX6OS1_Y129_Y125C] records phosphorylation enrichment of 0.7 or higher.
A: T

Q: Test whether the sequence RVGVDYEGRGC [PLOD1_Y675_G678R] records phosphorylation enrichment of 0.7 or higher.
A: F

Q: Test whether the sequence HLQQSYLPRGT [TEX45_Y396] records phosphorylation enrichment of 0.7 or higher.
A: T
